Measured ECL signal values are reported for all entries that follow.
# Target entity: rHuman ErbB2/Fc Chimera (human, UniProt P04626 23-652)
# Protocol details: ECL multispot (MSD) binding assay; antigen spotted on plate, Fab in solution;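 note: purified Fab bound for 1 h at 20 °C, detected with a TAG-labelled antibody, electrochemiluminescence compared with each well's blank, signal-to-blank ratio of at least 4 scored as hit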

Binder	ECL signal
Fab VH1-46_IGHD6-6*01_IGHJ1*01 S102A/S103P/S104F/H111F (APFF) & L6_IGKJ1*01 S92M (Fab, V domains shown, Tested as Fab (CH1 with His6/Flag tags from Plasmid A; kappa CL from Plasmid C); also called APFF / S92M) VH: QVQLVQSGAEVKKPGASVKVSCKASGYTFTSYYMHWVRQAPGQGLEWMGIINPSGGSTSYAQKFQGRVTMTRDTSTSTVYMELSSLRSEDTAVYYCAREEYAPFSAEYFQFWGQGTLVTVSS VL: EIVLTQSPATLSLSPGERATLSCRASQSVSSYLAWYQQKPGQAPRLLIYDASNRATGIPARFSGSGSGTDFTLTISSLEPEDFAVYYCQQRMNWPPWTFGQGTKVEIKR	301
Fab VH1-46_IGHD6-6*01_IGHJ1*01 S102A/S103P/S104F/H111F (APFF) & L6_IGKJ1*01 S92C (Fab, V domains shown, Tested as Fab made in E. coli: VH cloned into Plasmid A (CH1, His6 and Flag tags), kappa VL into Plasmid C (kappa CL); also called APFF / S92C) VH: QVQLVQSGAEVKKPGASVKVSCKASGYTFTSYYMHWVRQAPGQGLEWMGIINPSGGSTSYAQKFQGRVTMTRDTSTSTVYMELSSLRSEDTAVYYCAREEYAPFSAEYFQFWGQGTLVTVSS VL: EIVLTQSPATLSLSPGERATLSCRASQSVSSYLAWYQQKPGQAPRLLIYDASNRATGIPARFSGSGSGTDFTLTISSLEPEDFAVYYCQQRCNWPPWTFGQGTKVEIKR	526
Fab VH1-46_IGHD6-6*01_IGHJ1*01 S102A/S103P/S104F/H111F (APFF) & L6_IGKJ1*01 S92V (Fab, V domains shown, Tested as Fab (CH1 with His6/Flag tags from Plasmid A; kappa CL from Plasmid C); also called APFF / S92V) VH: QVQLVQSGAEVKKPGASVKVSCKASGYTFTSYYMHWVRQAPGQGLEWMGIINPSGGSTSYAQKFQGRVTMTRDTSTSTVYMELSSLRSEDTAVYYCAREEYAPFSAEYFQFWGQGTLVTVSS VL: EIVLTQSPATLSLSPGERATLSCRASQSVSSYLAWYQQKPGQAPRLLIYDASNRATGIPARFSGSGSGTDFTLTISSLEPEDFAVYYCQQRVNWPPWTFGQGTKVEIKR	246
Fab VH1-46_IGHD6-6*01_IGHJ1*01 S102A/S103P/S104F/H111F (APFF) & L6_IGKJ1*01 S92N (Fab, V domains shown, Tested as Fab (CH1 with His6/Flag tags from Plasmid A; kappa CL from Plasmid C); also called APFF / S92N) VH: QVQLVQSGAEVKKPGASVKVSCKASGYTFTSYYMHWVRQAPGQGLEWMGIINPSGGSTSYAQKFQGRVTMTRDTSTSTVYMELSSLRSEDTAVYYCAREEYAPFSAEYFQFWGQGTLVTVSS VL: EIVLTQSPATLSLSPGERATLSCRASQSVSSYLAWYQQKPGQAPRLLIYDASNRATGIPARFSGSGSGTDFTLTISSLEPEDFAVYYCQQRNNWPPWTFGQGTKVEIKR	242
